This section presents compounds with their documented A549 AVG values.
# Tested on: A549 (lung carcinoma)
# Experiment description: CIMA assay (colorimetric indicator of metabolic activity), cell viability, A549
# Condition description: A549, sample at 100 ug/mL
Readout label: A549 AVG

{"columns": ["Compound", "Measured on", "Readout label", "Result number"],
 "data": [
  ["CCCCC/C=C\\C/C=C\\CCCCCCCC(=O)O", "A549 (lung carcinoma)", "A549 AVG", 0.13],
  ["CC/C=C\\C/C=C\\C/C=C\\C/C=C\\C/C=C\\CCCC(=O)OCC(O)COC1OC(CO)C(O)C(O)C1O (centres unmarked)", "A549 (lung carcinoma)", "A549 AVG", 0.38],
  ["CC/C=C\\C/C=C\\C/C=C\\C/C=C\\CCC(=O)OC(COC(=O)CCCCCCC/C=C\\C/C=C\\C/C=C\\CC)COC1OC(CO)C(O)C(O)C1O (centres unmarked)", "A549 (lung carcinoma)", "A549 AVG", 0.86],
  ["CC/C=C\\C/C=C\\C/C=C\\CCCCCCCC(=O)O", "A549 (lung carcinoma)", "A549 AVG", 0.67],
  ["CC/C=C\\C/C=C\\C/C=C\\C/C=C\\C/C=C\\CCCC(=O)OCC(COC1OC(CO)C(O)C(O)C1O)OC(=O)CCC/C=C\\C/C=C\\C/C=C\\C/C=C\\C/C=C\\CC (centres unmarked)", "A549 (lung carcinoma)", "A549 AVG", 0.40]
]}

====

# System: THP-1 (acute monocytic leukemia)
# Experiment description: CIMA assay, cell viability, THP-1
# Condition description: THP-1, 100 ug/mL; listed as 174-13-14-3
Readout label: Average cell viability (%)

{"columns": ["Compound", "Measured on", "Readout label", "Result number"],
 "data": [
  ["CC/C=C\\C/C=C\\C/C=C\\C/C=C\\C/C=C\\CCCC(=O)OCC(COC1OC(CO)C(O)C(O)C1O)OC(=O)CCCCCCCCCCCCCCC (stereo not shown)", "THP-1 (acute monocytic leukemia)", "Average cell viability", 21]
]}

====

# Test system: PC3
# Experiment description: CIMA assay, cell viability, PC3
# Condition description: Homo sapiens, PC-3, read-out: Average cell viability, PC3; 50 ug/mL

{"columns": ["Compound", "Measured on", "viability at 50 µg/mL [%]"],
 "data": [
  ["CCCCCCCCCCCCCCCC(=O)OCC(COC1OC(CO)C(O)C(O)C1O)OC(=O)CCCCCCCCCCCCC (stereo not shown)", "PC3", 72],
  ["CC/C=C\\C/C=C\\C/C=C\\CCCCCCCC(=O)O", "PC3", 88],
  ["CC/C=C\\C/C=C\\C/C=C\\C/C=C\\CCC(=O)OC(COC(=O)CCCCCCC/C=C\\C/C=C\\C/C=C\\CC)COC1OC(CO)C(O)C(O)C1O (stereo not shown)", "PC3", 66],
  ["CCCCCCCCCCCCCCCC(=O)OCC(O)CO (stereo not shown)", "PC3", 52],
  ["CCCCC/C=C\\C/C=C\\CCCCCCCC(=O)O", "PC3", 11],
  ["CC/C=C\\C/C=C\\C/C=C\\C/C=C\\C/C=C\\CCCC(=O)OCC(O)COC1OC(CO)C(O)C(O)C1O (stereo not shown)", "PC3", 16],
  ["CC/C=C\\C/C=C\\C/C=C\\C/C=C\\C/C=C\\CCCC(=O)OCC(COC1OC(CO)C(O)C(O)C1O)OC(=O)CCC/C=C\\C/C=C\\C/C=C\\C/C=C\\C/C=C\\CC (stereo not shown)", "PC3", 14]
]}
